# Tested on: LOC_OS06G16330-cb003
# Sequence (as listed by the source): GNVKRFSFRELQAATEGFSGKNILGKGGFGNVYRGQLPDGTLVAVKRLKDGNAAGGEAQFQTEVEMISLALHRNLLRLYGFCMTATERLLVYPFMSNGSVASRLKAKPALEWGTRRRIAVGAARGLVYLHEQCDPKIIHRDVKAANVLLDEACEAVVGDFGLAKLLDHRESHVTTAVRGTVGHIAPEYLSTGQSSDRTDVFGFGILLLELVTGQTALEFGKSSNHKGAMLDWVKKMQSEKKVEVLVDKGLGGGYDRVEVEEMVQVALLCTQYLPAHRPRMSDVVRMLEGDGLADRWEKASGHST
# assay.overview: thermal shift delta Tm vs DMSO control; higher = stronger stabilization (binding);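 also: purified Escherichia coli-expressed rice kinase domain construct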
# condition.parameters: 12.5 µM; protein concentration 2 µM
Assign True whenever thermal shift delta Tm does not fall below 0.5 °C; assign False whenever it does.

Previously resolved entries follow.
• C[C@]1(O)C[C@@H](c2nc(-c3ccc4ccc(-c5ccccc5)nc4c3)c3c(N)nccn32)C1 [Linsitinib (OSI-906)] = True
• COc1ccc(CCNCc2ccc(OCc3ccc(Cl)nc3)c(OC)c2)cc1OC = False

(Q) Reported thermal shift delta Tm at or above 0.5 °C? COc1ccc(-c2ccc3ncc4c(c3c2)n(-c2ccc(N3CCNCC3)c(C(F)(F)F)c2)c(=O)n4C)cn1
(A) True

(Q) Reported thermal shift delta Tm at or above 0.5 °C? C=CC(=O)Nc1cccc(Nc2nc(Nc3ccc(NC4CN(CCF)C4)cc3OC)ncc2C(F)(F)F)c1
(A) False

(Q) Reported thermal shift delta Tm at or above 0.5 °C? CC(C)CC(=O)Nc1n[nH]c2c1CN(C(=O)C1CCN(C)CC1)C2(C)C
(A) False

(Q) Reported thermal shift delta Tm at or above 0.5 °C? O=C(Nc1cc(C(F)(F)F)cc(C(F)(F)F)c1)c1cc(Cl)ccc1O
(A) True

(Q) Reported thermal shift delta Tm at or above 0.5 °C? O=C(O)c1ccc2c(c1)nc(Nc1cccc(Cl)c1)c1ccncc12 [Silmitasertib (CX-4945)]
(A) True

(Q) Reported thermal shift delta Tm at or above 0.5 °C? Cc1cc(Nc2ncnc3ccc(NC4=NC(C)(C)CO4)cc23)ccc1Oc1ccn2ncnc2c1 [Irbinitinib (ARRY-380, ONT-380)]
(A) False

(Q) Reported thermal shift delta Tm at or above 0.5 °C? Cc1nc(Nc2ncc(C(=O)Nc3c(C)cccc3Cl)s2)cc(N2CCN(CCO)CC2)n1 [Dasatinib]
(A) True

====

# Tested on: LOC_OS03G27990-cb004
# assay.overview: thermal shift delta Tm vs DMSO control; higher = stronger stabilization (binding)
# condition.parameters: 12.5 µM; protein concentration 2 µM
Counter-ions that a name gives are not always drawn.
endpoint: thermal shift delta Tm (°C)
Give just the numeric value; °C need not be written.

Worked examples follow.
• COc1ccc(S(=O)(=O)N(CCO)c2ccccc2CN(C)C/C=C/c2ccc(Cl)cc2)cc1 [KN-93 Phosphate] = 0.2
• CC(C)n1nc(-c2ccc3oc(N)nc3c2)c2c(N)ncnc21 = 1.24
• COc1ccc(COc2cc3oc(=O)c4cc(C(C)O)ccc4c3cc2OC)cc1 (centres undefined) = 0.35
• Cc1cc2c(F)c(Oc3ncnn4cc(OC[C@@H](C)O)c(C)c34)ccc2[nH]1 = 1.01
• N#Cc1c(Oc2ccc(F)c(NC(=O)Cc3cccc(C(F)(F)F)c3)c2)ccc2nc(NC(=O)C3CC3)sc12 = 0.31
• Cc1cc(CS(=O)(=O)c2ccccc2)cc(OCc2ccc(CN3CCC[C@@H]3CO)cc2)c1 = 0.41
• CC[C@@](C)(Nc1ccnc(-c2c[nH]c3ncccc23)n1)C(=O)NCC(F)(F)F = 0.33
• CN1CCC(COc2cnc(-c3cccc(Cn4nc(-c5cccc(C#N)c5)ccc4=O)c3)nc2)CC1 = 0.03
• Cc1cc(Nc2nc(N[C@@H](C)c3ccc(F)cc3)c(C#N)cc2F)n[nH]1 = 0.57
• Nc1[nH]nc2nnc(-c3c(-c4ccccc4)nn4ccccc34)cc12 = 0.56

(Q) Requested field: thermal shift delta Tm. Item: Cn1cc(-c2ccc(F)c(C(F)(F)F)c2)nc1C1CCN(c2ncnc3[nH]ncc23)CC1
(A) 0.44

(Q) Requested field: thermal shift delta Tm. Item: Nc1ncccc1-c1nc2ccc(-c3ccccc3)nc2n1-c1ccc(C2(N)CCC2)cc1 [Miransertib (ARQ 092) HCl]
(A) 0.04

(Q) Requested field: thermal shift delta Tm. Item: COCCNCc1ccc(-c2cc3nccc(Oc4ccc(NC(=O)C5(C(=O)Nc6ccc(F)cc6)CC5)cc4F)c3s2)nc1
(A) 1.06

(Q) Requested field: thermal shift delta Tm. Item: O=c1sn(-c2cccc3ccccc23)c(=O)n1Cc1ccccc1
(A) 0.89

(Q) Requested field: thermal shift delta Tm. Item: CCCCNc1ncc(-c2ccc(CN3CCOCC3)cn2)c(NC2CCC(O)CC2)n1 (centres undefined)
(A) 1.94

(Q) Requested field: thermal shift delta Tm. Item: O=C1NC(=O)/C(=C/c2cccc(C(F)(F)F)c2)S1
(A) 0.26

(Q) Requested field: thermal shift delta Tm. Item: O=C(c1ccc(Nc2nccc(-c3cc4ccccc4s3)n2)cc1)N1CCC(N2CCCC2)CC1
(A) 4.05

(Q) Requested field: thermal shift delta Tm. Item: C[C@@H](NC(=O)c1ncnc(N)c1Cl)c1ncc(C(=O)Nc2cc(C(F)(F)F)c(Cl)cn2)s1
(A) 0.28

(Q) Requested field: thermal shift delta Tm. Item: O=c1cc(N2CCOCC2)oc2c(-c3ccc4c(c3)OCCO4)csc12
(A) 0.46

====

# Tested on: LOC_OS03G12390-cb001
# assay.overview: thermal shift delta Tm vs DMSO control; higher = stronger stabilization (binding)
# condition.parameters: 12.5 µM; protein concentration 2 µM
// thermal shift delta Tm lookup, one value per entry
Give just the numeric value; °C need not be written.

Worked examples follow.
- O=C(Nc1ccc(-c2ccnc(Nc3ccc(N4CCOCC4)cc3)n2)cc1)C1CCCN1 (stereo unspecified): 1.05
- N#CCNC(=O)c1ccc(-c2ccnc(Nc3ccc(N4CCOCC4)cc3)n2)cc1: 2.09

(Q) Find the measured thermal shift delta Tm: item COc1cc2ncnc(Nc3cccc(Cl)c3F)c2cc1OC(=O)N1CCN(C)C[C@H]1C , target or system LOC_OS03G12390-cb001.
(A) 0.01

(Q) Find the measured thermal shift delta Tm: item COc1cc(N2CCC(N(C)C)CC2)ccc1Nc1ncc(Cl)c(Nc2ccccc2P(C)(C)=O)n1 , target or system LOC_OS03G12390-cb001.
(A) 10.9

(Q) Find the measured thermal shift delta Tm: item Cc1ccc(NC(=O)c2cccc(N(C)C)c2)cc1NC(=O)c1ccc(O)cc1 , target or system LOC_OS03G12390-cb001.
(A) 0.34

====

// thermal shift delta Tm lookup, one value per entry
# Test system: LOC_OS01G21960-cb002
# assay.overview: thermal shift delta Tm vs DMSO control; higher = stronger stabilization (binding)
# condition.parameters: 12.5 µM; protein concentration 2 µM
Give just the numeric value; °C need not be written.

Worked examples follow.
* Cc1cc(C(=O)NOCCO)c(Nc2ccc(I)cc2F)n(C)c1=O | 0.85
* CCn1c(=O)c(-c2ccc(-c3cncs3)cc2Cl)cc2cnc(Nc3ccc(N4CCN(C)CC4)cc3)nc21 | 0.22
* Cc1ccc(Nc2nccc(N(C)c3ccc4c(C)n(C)nc4c3)n2)cc1S(N)(=O)=O | 1.29
* O=c1c(O)c(-c2cc(O)c(O)c(O)c2)oc2cc(O)cc(O)c12 [Myricetin] | 5.56

(Q) Requested field: thermal shift delta Tm. Item: C[C@@H](N)c1ccc(C(=O)Nc2ccnc3[nH]ccc23)cc1
(A) 1.78

====

// thermal shift delta Tm lookup, one value per entry
# Tested on: LOC_OS01G39600-cb002
# assay.overview: thermal shift delta Tm vs DMSO control; higher = stronger stabilization (binding)
# condition.parameters: 12.5 µM; protein concentration 2 µM
Give just the numeric value; °C need not be written.

Worked examples follow.
• CCS(=O)(=O)c1cccc(-c2cc(C(=O)NC3CCN(C)CC3)c(C)c3[nH]c4ncc(C)cc4c23)c1 = 0.89
• C=CC(=O)Nc1ccc(CN2C(=O)N(c3cc(OC)cc(OC)c3)Cc3cnc(Nc4ccc(N5CCN(C)CC5)cc4)nc32)cc1 = -0.73
• CC(C)(O)CNc1ncc(-c2ccnc(Nc3ccncc3)n2)c(CC2CC2)n1 = 0.48
• NC1(Cc2ccc(Cl)cc2)CCN(c2ncnc3[nH]ccc23)CC1 = 0.46
• CC(C)(CCCCCC(O)CCCCCC(C)(C)C(=O)O)C(=O)O = -0.54

(Q) Requested field: thermal shift delta Tm. Item: CCN1CCN(Cc2ccc(C(=O)Nc3ccc(C)c(Oc4ccc5c(c4)CC(=O)N5)c3)cc2C(F)(F)F)CC1
(A) -0.14

(Q) Requested field: thermal shift delta Tm. Item: CN1CCN(c2ccc(-c3ccncc3-c3cc(F)c(O)c(F)c3)cc2)CC1
(A) -0.43

(Q) Requested field: thermal shift delta Tm. Item: CNC(=O)c1ccc(C)c(-n2c(C)cc(OCc3ccc(F)cc3F)c(Br)c2=O)c1
(A) -0.13

(Q) Requested field: thermal shift delta Tm. Item: CCn1c(=O)c(-c2ccc(Cl)cc2Cl)cc2cnc(Nc3ccc(N4CCNCC4)c(F)c3)nc21
(A) 5.06

(Q) Requested field: thermal shift delta Tm. Item: NC(=O)c1cnc2[nH]ccc2c1N[C@@H]1[C@@H]2CC3C[C@H]1C[C@@](O)(C3)C2
(A) 5.22

(Q) Requested field: thermal shift delta Tm. Item: C=CC(=O)Nc1cc(Nc2nccc(-c3cn(C)c4ccccc34)n2)c(OC)cc1N(C)CCN(C)C
(A) 0.02

(Q) Requested field: thermal shift delta Tm. Item: O=C1NC(=O)C(c2cnc3ccccn23)=C1c1cn2c3c(cc(F)cc13)CN(C(=O)N1CCCCC1)CC2
(A) 5.95

(Q) Requested field: thermal shift delta Tm. Item: O=C1Nc2ccc(I)cc2/C1=C/c1cc(Br)c(O)c(Br)c1
(A) 25.1
